- system.name: full-length human PKCι (Homo sapiens)
- Construct: Recombinant, full-length human PKCι expressed in Sf21 insect cells is also commercially available
- assay.summary: PKCι IC50 IMAP assay, full-length PKCι at 150 μM ATP
- assay.conditions: read-out: IC50 in IMAP assay against full length PKCi at 150 μM ATP
pIC50: −log10 of the molar value.
Catalogue of pIC50 values

The examples below pair each entry with its known result.
[
  {
    "compound": "CN(c1nc(-c2ccnc(Nc3ccc4ccccc4n3)c2)nc2cncc(C3CC3)c12)C1CCNCC1",
    "pIC50": "> 7.00"
  },
  {
    "compound": "c1cc(-c2nc(N3CCNCC3)c3c(C4CC4)cncc3n2)c2cc(C3CCOCC3)[nH]c2n1",
    "pIC50": "> 7.00"
  },
  {
    "compound": "C[C@@H](Nc1cc(-c2nc(N3CCNC(C)(C)C3)c3c(C4CC4)cncc3n2)ccn1)C1CC1",
    "pIC50": "> 7.00"
  },
  {
    "compound": "CC1(C)CC(Nc2nc(-c3ccnc(Nc4c(F)cccc4F)c3)nc3cncc(C4CC4)c23)CCN1 (centres unmarked)",
    "pIC50": "> 7.00"
  },
  {
    "compound": "COc1cncc2nc(-c3ccnc(Nc4ccc(Cl)nc4)c3)nc(N3CCNCC3)c12",
    "pIC50": "> 7.00"
  }
]

Enquiry: // returns reported pIC50 for input `C[C@@H]1CN(c2nc(-c3ccnc(NC4CCN(CC(F)(F)F)CC4)c3)nc3cncc(C4CC4)c23)C[C@H](C)N1`
Return: > 7.00

Enquiry: Param item = c1cc(-c2nc(N3CCNCC3)c3c(C4CC4)cncc3n2)c2cc(C3CCOC3)[nH]c2n1 (centres unmarked) ; retrieve measured pIC50.
Return: > 7.00

Enquiry: Look up pIC50 for this compound: `C[C@H]1CN(c2nc(-c3ccnc(Nc4nc(F)c(F)cc4F)c3)nc3cncc(C4CC4)c23)CCN1`
Return: 5.00 to 6.00

Enquiry: Would you kindly share the measured pIC50 for `COc1cncc2nc(N3CCOCC3)nc(N3CCN[C@@H](COc4ccc(F)cc4)C3)c12` ?
Return: 6.00 to 7.00

Enquiry: Please report the recorded pIC50 for `CN1CCN(C(=O)C2CCN(c3nc(-c4ccnc(Nc5c(F)cccc5F)c4)nc4cncc(C5CC5)c34)CC2)CC1` .
Return: 6.00 to 7.00

Enquiry: Name the recorded pIC50 for `OCCN1CCN(c2nc(-c3ccncc3)nc3cnccc23)CC1` .
Return: 4.40 to 5.00

###

metric.name: melting point

Use the examples below as a reference point.
[
  {
    "molecule": "COc1cncc2nc(-c3ccnc(Nc4ccccc4)c3)nc(N3CCCCC3)c12",
    "melting point": "221 to 223 °C"
  },
  {
    "molecule": "COc1cncc2nc(-c3ccnc(Nc4ccccc4)c3)nc(N3CCC(F)CC3)c12",
    "melting point": "202 to 205 °C"
  },
  {
    "molecule": "COc1cncc2nc(-c3ccnc(Nc4ccccc4)c3)nc(N3CC[C@H](CO)C3)c12",
    "melting point": "210 to 211 °C"
  },
  {
    "molecule": "COc1cncc2nc(-c3ccnc(Nc4ccccc4)c3)nc(N3CC[C@@H](CO)C3)c12",
    "melting point": "208 to 209 °C"
  },
  {
    "molecule": "COc1cncc2nc(-c3ccnc(Nc4ncccn4)c3)nc(N3CCNCC3)c12",
    "melting point": "200 to 203 °C"
  },
  {
    "molecule": "COc1cncc2nc(-c3ccnc(Nc4ccccc4)c3)nc(N3CCC(C#N)CC3)c12",
    "melting point": "242 to 244 °C"
  },
  {
    "molecule": "COc1cncc2nc(-c3ccnc(Nc4ccccc4)c3)nc(N3CC[C@H](O)[C@H](O)C3)c12 (racemic)",
    "melting point": "241 to 243 °C"
  }
]

Enquiry: Looking for the measured melting point of `COc1cncc2nc(-c3ccnc(Nc4ccc(Cl)nc4)c3)nc(N3CCNCC3)c12` , can you help?
Return: 206 to 208 °C

###

- system.name: full-length human PKCι (Homo sapiens, UniProt P41743)
- Construct: Recombinant, full-length human PKCι expressed in Sf21 insect cells is also commercially available
- assay.summary: PKCι IC50 IMAP assay, full-length PKCι at 150 μM ATP
- assay.conditions: read-out: IC50 in IMAP assay against full length PKCi at 150 μM ATP
# IC50 per entry

[
  {
    "molecule": "COc1cncc2nc(-c3ccnc(Nc4ccccc4)c3)nc(N3CC[C@@H](O)[C@@H](O)CC3)c12 [Example 467]",
    "IC50": "1000 to 10000 nM"
  },
  {
    "molecule": "Cn1cnc2ccc(Nc3cc(-c4nc(N5CCNCC5)c5c(C6CC6)cncc5n4)ccn3)cc21 [Example 2149]",
    "IC50": "< 100 nM"
  }
]

Pending molecule:
Enquiry: Would you kindly share the measured IC50 for COc1cncc2nc(-c3ccnc(NC(=O)Cc4cccc(C#N)c4)c3)nc(N3CCOCC3)c12 [Example 389] ?
Return: 100 to 1000 nM

###

- system.name: full-length human PKCι (Homo sapiens)
- Construct: Recombinant, full-length human PKCι expressed in Sf21 insect cells is also commercially available; purchased; host or cells: Sf21 insect cells
- Sequence (P41743 1-596): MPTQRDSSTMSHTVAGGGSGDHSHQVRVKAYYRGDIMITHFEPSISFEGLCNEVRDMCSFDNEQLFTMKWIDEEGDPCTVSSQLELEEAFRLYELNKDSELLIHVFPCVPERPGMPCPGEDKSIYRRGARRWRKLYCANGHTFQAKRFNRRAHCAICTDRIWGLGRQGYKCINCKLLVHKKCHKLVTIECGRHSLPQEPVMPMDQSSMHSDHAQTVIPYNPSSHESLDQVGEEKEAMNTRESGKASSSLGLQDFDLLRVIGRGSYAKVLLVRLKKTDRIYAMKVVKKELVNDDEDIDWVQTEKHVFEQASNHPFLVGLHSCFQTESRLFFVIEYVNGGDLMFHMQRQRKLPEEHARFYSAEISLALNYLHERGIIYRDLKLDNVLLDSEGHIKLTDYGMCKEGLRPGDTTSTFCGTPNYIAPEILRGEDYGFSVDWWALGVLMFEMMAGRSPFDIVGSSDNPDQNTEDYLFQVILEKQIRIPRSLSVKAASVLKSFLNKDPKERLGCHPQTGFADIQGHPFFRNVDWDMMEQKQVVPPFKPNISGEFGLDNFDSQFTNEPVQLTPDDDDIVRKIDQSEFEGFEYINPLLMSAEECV
- assay.summary: PKCι IC50 IMAP assay, full-length PKCι at 150 μM ATP
- Assay type: biochemical
- assay.conditions: read-out: IC50 in IMAP assay against full length PKCi at 150 μM ATP
metric.name: IC50

Record excerpt, results attached:
[
  {
    "compound": "Fc1cccc(F)c1Nc1cc(-c2nc(NC3CCCNC3)c3c(C4CC4)cncc3n2)ccn1 (stereo not shown)",
    "reading": "< 0.1 µM"
  },
  {
    "compound": "O=C(Cc1ccccc1)Nc1cc(-c2nc(N[C@@H]3CCNC3)c3ccncc3n2)ccn1",
    "reading": "1 to 10 µM"
  },
  {
    "compound": "Cn1nc(Nc2cc(-c3nc(N4CCNCC4)c4c(C5CC5)cncc4n3)ccn2)c2ccccc21",
    "reading": "< 0.1 µM"
  },
  {
    "compound": "Fc1cccc(F)c1-c1cc2c(-c3nc(N4CCNCC4)c4c(C5CC5)cncc4n3)ccnc2[nH]1",
    "reading": "< 0.1 µM"
  },
  {
    "compound": "COc1cc(N2CCOCC2)ccc1Nc1cc(-c2nc(N[C@@H]3CCNC3)c3c(OC)cncc3n2)ccn1",
    "reading": "0.1 to 1 µM"
  }
]

Let us move to another entry and its IC50.
Enquiry: Quick one: IC50 for `O=C1CN(c2nc(-c3ccncc3)nc3cnccc23)CCN1` ?
Return: 10 to 40 µM

###

- system.name: full-length human PKCι (Homo sapiens)
- Construct: Recombinant, full-length human PKCι expressed in Sf21 insect cells is also commercially available
- Sequence (P41743 1-596): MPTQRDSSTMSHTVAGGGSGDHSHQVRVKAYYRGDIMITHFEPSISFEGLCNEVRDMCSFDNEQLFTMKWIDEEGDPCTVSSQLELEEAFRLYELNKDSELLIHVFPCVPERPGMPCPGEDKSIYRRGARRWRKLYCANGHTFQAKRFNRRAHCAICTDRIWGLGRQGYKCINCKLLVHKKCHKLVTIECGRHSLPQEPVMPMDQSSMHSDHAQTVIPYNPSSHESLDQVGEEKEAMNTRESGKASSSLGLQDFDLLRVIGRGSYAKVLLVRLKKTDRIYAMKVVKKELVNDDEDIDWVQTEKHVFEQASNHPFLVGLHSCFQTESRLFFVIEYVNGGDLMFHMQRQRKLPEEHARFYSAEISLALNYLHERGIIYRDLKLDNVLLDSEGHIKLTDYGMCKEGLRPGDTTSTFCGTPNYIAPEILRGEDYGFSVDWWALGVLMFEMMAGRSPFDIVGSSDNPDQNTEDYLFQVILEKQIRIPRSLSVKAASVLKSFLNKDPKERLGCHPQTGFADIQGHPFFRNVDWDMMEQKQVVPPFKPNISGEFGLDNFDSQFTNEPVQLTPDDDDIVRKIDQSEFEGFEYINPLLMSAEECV
- assay.summary: PKCι IC50 IMAP assay, full-length PKCι at 150 μM ATP
- assay.conditions: read-out: IC50 in IMAP assay against full length PKCi at 150 μM ATP
pIC50: −log10 of the molar value.
metric.name: pIC50

Use the examples below as a reference point.
[
  {
    "smiles.str": "COc1cncc2nc(-c3ccnc(Nc4c(F)cccc4F)c3)nc(N3CCN[C@@H](CO)C3)c12",
    "pIC50": "> 7.00"
  },
  {
    "smiles.str": "FC(F)c1cc2c(-c3nc(N4CCNCC4)c4c(C5CCC5)cncc4n3)ccnc2[nH]1",
    "pIC50": "> 7.00"
  },
  {
    "smiles.str": "c1cc(-c2nc(N3CCN4CCC[C@@H]4C3)c3ccncc3n2)ccn1",
    "pIC50": "4.40 to 5.00"
  }
]

Turning now to a further record.
Enquiry: // fetch full-length human PKCι (Homo sapiens) pIC50 for `CCn1nc(Nc2cc(-c3nc(N4CCNCC4)c4c(C5CC5)cncc4n3)ccn2)cc1C`
Return: > 7.00

Reference source: patent US9914730B2
